Assay: soluble on expression in E. coli; label from the status in PepcDB or PDB records
observable: soluble on expression in E. coli

1. MGSDKIHHHHHHMGIGRGYAVWSPRSIYLTDFVYANFLEELIMQTLIIYSTIDGQTLAICQKMKTIAEQAGEQVALVTLEQADALSLADFDKVLIGASIRYGKHRPELYQFVNRHHAVLDTKINGFFTVNVVARKPLKNTPETNPYMQKFLQLSLWQPQLLEVFAGKIDYPKYGFFDRTMIRFIMWMTKGPTDITGTFEFTDWEKVDAFGNRFSQH    not soluble
2. MGSDKIHHHHHHMDAANVDLKAFTEDFYHRLCGAHLESVKETLVYLKHETDVWVEVTTLLIPGENDSPEEIDAQTKWMMAALGPDVPLHFSAFHPDWKMKDKTNTPPETLTRARDIAIRNGLRYVYTGNVHDPAGGGTYCSGCGALLIGRDWYELSTWALTPEGHCRECGTPLPGRFEAAPGTWGRKRQPVRFQR    not soluble

----------
Experiment: soluble on expression in E. coli; label from the status in PepcDB or PDB records
observable: soluble on expression in E. coli

1) MGIMELARIDLSRDDLDKRIGGGIPHGSLIIIEGEESTGKSVLCQRLAYGFLQNRYSVTYVSTQLTTLEFIKQMNSLNYSINKKLLSGALLYIPVYPLIADNKKKDGFLKKVMETRAFYEKDVIIFDSISALIANDASEVNVDDLMAFFKRITALKKIIICTVNPKELPESVLTIIRTSATMLIRTELFTFGGDLKNLAKILKYNMAPGSYQKNIVFRVEPKIGIAVEIASVALEHHHHHH    soluble
2) MKIYVDADACPVKDVIIFEATKAEIPVTLVTSFSHYSNAEQPKGVETIYVDSGADAADYRIMQLAQKEDLIVTQDYGLASLALAKGCIVLHHKGYKYTNENIDQLLQTRYLSAMVRKSGKRTKGPKPFTAEDKEKFRALFKSMIPLLEHHHHHH    soluble
3) MHHHHHHLVPRGSMLDFEKPLFEIRNKIESLKESQDKNDVDLQEEIDMLEASLERETKKIYTNLKPWDRVQIARLQERPTTLDYIPYIFDSFMELHGDRNFRDDPAMIGGIGFLNGRAVTVIGQQRGKDTKDNIYRNFGMAHPEGYRKALRLMKQAEKFNRPIFTFIDTKGAYPGKAAEERGQSESIATNLIEMASLKVPVIAIVIGEGGSGGALGIGIANKVLMLENSTYSVISPEGAAALLWKDSNLAKIAAETMKITAHDIKQLGIIDDVISEPLGGAHKDIEQQALAIKSAFVAQLDSLESLSRDEIANDRFEKFRNIGSYIE    soluble

----------
Assay: soluble on expression in E. coli; label from the status in PepcDB or PDB records
observable: soluble on expression in E. coli

1. MAHHHHHHMTQLHSVASLDYGDGRTCVCRICECGKHQCPGLRVPFVGETTYRDEYVGKSIERERPRKARQTVFPSKAEPGHFKTTKQEAADLLKGKDLRPAESYKPREAAAAPLPFEGTTTNRADFPGWMPDYNRTKRKEDPLPRLPGTYVTTKGAMEEPVRDLAEQGRLPKPPKSFKADDTLQNSLPFDGITNYTAEYQPKEVPMTRSAARDVQPVALPENRDFQTTVSAAYQVPPMHMRHDCPAAFVPMRPASRDGHIKLSVYNIPSGDTMY    not soluble
2. MQDNSTKYLLYIQTATSNHLETNCVFLHCDYILKVPINKLVSYYAKLHLSSQSVLIETAKNILNINKLVPIYINPKTILFPLKHKRAPIQIYINAHYIVGMTAIENSTLIHFQEGIQLEVDEPFSLVSKKCHESLALKHFIENTISNLEHHHHHH    not soluble
3. MGSDKIHHHHHHMDTDLLRAFVTVAECEGFSAAGKVLHRTQSAVSLQIKRLEDQMGESLFERTSRSVVLTPPGGRLLPYARHILKLQDEARRVMGVDRQGELIRLGTSEEQASTYLPELLPRFAARFPEVRLEVSCSISGSLVHDFQEGLLDVALVVRHGPTQTGRLLGREPMVWVVAEDRAIDDWEILPLALNPEGCIFRAHAFAALGPTERRWDVRYSSRSPTGINLPVQAGLAATVKTPRSVPEGCRIVGEEEGLPPLGHVEIEMHRTPGHSSDAFVAFCDELEHIVTATDSLESLEYVAAEG    not soluble

----------
Assay: soluble on expression in E. coli; label from the status in PepcDB or PDB records
observable: soluble on expression in E. coli

Consider the reported soluble on expression in E. coli for these sequences:
1. MAAQESLHVKTPLRDSMALSKVAGTSVFLKMDSSQPSGSFKIRGIGHLCKMKAKQGCKHFVCSSAGNAGMATAYAARRLGLPATIVVPSTTPALTIERLKNEGATVEVVGEMLDEAIQLAKALEKNNPGWVYISPFDDPLIWEGHTSLVKELKETLSAKPGAIVLSVGGGGLLCGVVQGLREVGWEDVPIIAMETFGAHSFHAAVKEGKLVTLPKITSVAKALGVNTVGAQTLKLFYEHPIFSEVISDQEAVTAIEKFVDDEKILVEPACGAALAAVYSGVVCRLQAEARLQTPLASLVVIVCGGSNISLAQLQALKAQLGLNELLK    soluble
2. MTDNTLTPQMLTGLSTDHLVVLSGAHRLQPQAAEAFQAMQQAAKVAGFDLQPASTFRDFGRQLAIWNGKFRGERPVLDQDSQPIDIFSLDTAARCEAILRWSALPGTSRHHWGSDLDIYDPSRLPTGEKLQLEPWEYDAGGYFYPLTQWLSAHMAEFGFYRPFATDNGGVAVEPWHLSYRPLAEQAEHLLTPKILLAAWQSQDVAGSEWLASHLPMIFSRFIYLK    not soluble
3. MTESTLAFVFPGQGSQSLGMLAELSELHPQIRETFAEASEGAGVDLWALSQGGPEEMLNRTEYTQPALLAAGVAVWRLWTAQRGQRPALLAGHSLGEYTALVAAGVLSLHDGAHLVRLRGQFMQAAAPAGVGAMAAVLGAEDAVVLEVCAEAAGSQVVVPANFNSPGQIVIGGDAAAVDRALALLAERGVRKAVKLAVSVPSHTPLMRDAANQLGEAMAGLSWHAPQIPVVQNVDARVHDGSAAIRQALVEQLYLPVQWTGCVQALASQGITRIAECGPGKVLSGLIKRIDKSLDARPLATPADYAGALDAWAH    soluble
4. DIHQEMDREELELEEVDLYRMNSQDKLGLTVCYRTDDEDDIGIYISEIDPNSIAAKDGRIREGDRIIQINGIEVQNREEAVALLTSEENKNFSLLIARPELQLDEGWMDDD    soluble
5. MTNVLILGAAGQIARLAEQQFLANTTDNLTLYLRNSSRVADQQSDRVTIIDGDTTDEAKLTQAMTGQDVVYANLAGQNIKQQAETVLKAMHTSGLKRLIWISTLGIYDEVPGKFGQWNNATLGSYLTRYYAAAEVLENSDLDYTIIRPAWLTNKDEIDYEITQRHDPFKGTEVSRKSIAALVVKLTQDPTSNIRTSLGVNKPNTDGDKPAWY    not soluble

What measured soluble on expression in E. coli goes with `MAHHHHHHMGTLEAQTQGPGSMLKSVGVILVLSSPSGCGKTTVANKLLEKQKNNIVKSVSVTTRAARKGEKEGKDYYFVDREEFLRLCSNGEIIEHAEVFGNFYGVPRKNLEDNVDKGVSTLLVIDWQGAFKFMEMMREHVVSIFIMPPSMEELRRRLCGRRADDSEVVEARLKGAAFEISHCEAYDYVIVNEDIEETADRISNILRAEQMKTCRQVGLRELLESRFPIED` ?
soluble

----------
Experiment: soluble on expression in E. coli; label from the status in PepcDB or PDB records
observable: soluble on expression in E. coli

Consider the reported soluble on expression in E. coli for these sequences:
1) MQNDAGQTVELYVPRKCSSSNRIIGPKDHASVQIDFVDVDPETGRMIPGKSTRYAICGAIRRMGESDDAILRLAQKDGLVPRDDVKSN    not soluble
2) MQGVQEQIEELQTKLAFQELTVEELNQEVIKLNQLVAHQQHQIQLLIGKLQAIEPSNMATQAEETPPPHY    soluble
3) MEEAPFYRDTWVEVDLDAIYNNVTHIKEFIPSDVEIFAVVKGNAYGHDYVPVAKIALEAGATRLAVAFLDEALVLRRAGITAPILVLGPSPPRDINVAAENDVALTVFQKEWVDEAIKLWDGSSTMKYHINFDSGMGRIGIRERKELKGFLKSLEGAPFLELEGVYTHFATADEVETSYFDKQYNTFLEQLSWLKEFGVDPKFVHTANSAATLRFQGITFNAVRIGIAMYGLSPSVEIRPFLPFKLEPALSLHTKVAHIKQVIKGDGISYNVTYRTKTEEWIATVAIGYADGWLRRLQGFEVLVNGKRVPIVGRVTMDQFMIHLPCEVPLGTKVTLIGRQGDEYISATEVAEYSGTINYEIITTISFRVPRIFIRNGKVVEVINYLNDILEENLYFQ    soluble
4) MNKFNEEYRKMEEDAQRRHQELNRQSLENAAEMKDSRRKILNKEFEGAILIKQVEHETKQVEKKRENLEKGHKKEMRNMSADFRKKKNEIEMEQLKLAIGNRVENHNQRKVEEQLRNEQERFLKKLLKYHTTTGANRDLFGEFQKVLKPFNEMIGELQDIKLRCITDGDADNGYIEYEVDYVGQLRRSVYTEIDEFREYIADEKNISKEIGIACAIYVKKLERIADCKELNLLCDQLQAAIEGKNGEIIKTCEIFIDKFTQKFESISNGSTSDFHRLRLKAPERDIPSSSTLTIEN    not soluble
5) MSLGVTVSKNEAQRLENLTRDALLSTRRLSLIVDLDQTIIHTTVDPTVAEWMDEIHREEMKDAQEKANVPTEEVKGKGEETTTPPGSPGPGALGITVESPKEKNPNAEALRDVAKFQIADDLPPGYVKLKTKTTKGQNPPESEGRWYFTKPRPGLQRFLDEMCQLYEMHVYTMGTRTYADAIVKVIDPDGKIFGGRILSRDESGSFSSKNLKRLFPTDTSMVVVIDDRSDVWGDCPNLVKVVPYDFFLGIGDINSSFLPTNKSTEGHHHHHH    soluble

What measured soluble on expression in E. coli goes with `MGSDKIHHHHHHMENDILKYQKAYNTIVKLLKSNEKVLATMVFGSIVSGDLWEESDIDLFVIIDEEMANIKNIYMEQNDVPIHIKLMGKNKFVLLNENDIKGGFFHRIFASSKLVFSKDKDITEKYDSGRYYPDIDREKWNMVYISDLLKSLGLCKKYLNNKRIYTAYYFSVKCVEEFSKLYINHSGYMVNKDDVNMLTNINGDFKNYIDNLFFSKDNVEEAIKEVVDKIEEFINKNIKSITAILIDYMRDKDKSLSAEDINTDPVFNDFSINFEEILSKLWEFNIIKKGTRKYSIKDGKALCMENVYYL` ?
not soluble

What measured soluble on expression in E. coli goes with `MSLTVFKSPITGRTYHLVFNDEFDDGVIDTLKWDTRSRRSPFTRRGMYQEKPYYVLCHEDWTKELHGELRLEVSKYPTQNNVVMTGGILSLGRFMARYGYYETKASFRDCIGEGYWPAFWIHFDEADKYGKGTEIDVFEYIPKDKQIFQTLHWYKKQAMEEQQSEVQHAALDYDKSGQFKEHRSSTKYFVLDEAQSKEHTFAVEWTPEELIFYTDGKVTRRVNRKDDPKQVPSAYQMVYFSCSAGEWGGNVMENQVPAYVYFDYCRCYQESDQDAIYTVKGNGMKVPASRRVGKEGHHHHHH` ?
not soluble

What measured soluble on expression in E. coli goes with `MKFVAVIRQVPDGESKLRIQGDRVDLSGATMILDQMDEYAVEEAIRLKERHGGEAVVVGFGPERTEEAIRTALAMGMDRGVHVVYEGFADPVAVAEALVEVLKEEAPTLVLTGGQQADWDSQALGGALTEALGVPVVAWTTALELEGDTAKAKHDLDEGAEWVRVRLPAVFTTQQGLNEPRYPTLPGIMKAKKKEIRKVQASLTPKVTLISEEIQEKSRLGKILDGKDPVAAAEELVRLLHEEAKVI` ?
soluble

What measured soluble on expression in E. coli goes with `SASPSLERPEKGAGKSEFRNQKPKPENQDESELLTVPDGWKEPAFSKEDNPRGLLEESSFATLFPKYRGAYLKECWPLVQKALNEHHVNATLDLIEGSMTVCTTKKTFDPYIIIRARDLIKLLARSVSFEQAVRILQDDVACDIIKIGSLVRNKERFVKRRQRLIGPKGSTLKALELLTNCYIMVQGNTVSAIGPFSGLKEVRKVVLDTMKNIHPIYNIKSLMIKRELAKDSELRSQSWERFLPQFKHKNVNKRKEPKKKTVKKEYTPFPPPQPESQIDKELASGEYFLKANQKKRQKMEAIKAKQAEAISKRQEERNKAFIPPKEKPIVKPKEASTETKIDVASIKEKVKKAKNKKLGALTAEEIALKMEADEKKKKKKK` ?
soluble

What measured soluble on expression in E. coli goes with `LEANEGSKTLQRNRKMAMGRKKFNMDPKKGIQFLVENELLQNTPEEIARFLYKGEGLNKTAIGDYLGEREELNLAVLHAFVDLHEFTDLNLVQALRQFLWSFRLPGEAQKIDRMMEAFAQRYCLCNPGVFQSTDTCYVLSYSVIMLNTDLHNPNVRDKMGLERFVAMNRGINEGGDLPEELLRNLYDSIRNEPFKIPEDDGND` ?
soluble

What measured soluble on expression in E. coli goes with `MSLGKEAEMNYPTDEKNFFQILEEQLSYFKINKKIKEICIFIINNLDKKGYLELSKIEIKDILEVSNKELEEAFDIIHNLEPYGIGAYSLEECLKIQLKAKKIIEEKLSLFIDNYLYLLADKKYDLIKEKLNINDNILFSYIDIIKSLNPIPSRGYSVGKVRKIIPDVLVEIKKNEIFYEINRASIPQINVKDKIEDKYYKKINEIISCIEKRFETIDKIMKIIIREQKIFFTSQGKKINTLKISDIADKLNLSPSTVSRAVKEKYIKTNFGIISLRKLFNLDSAVFLYQQKILEYIENENKENPISDQDIVNLLEKDGIKIARRTVTKYREKLGYKSSHKRKKYEGHHHHHH` ?
not soluble

What measured soluble on expression in E. coli goes with `EIEKGGCGDPGIPAYGKRTGSSFLHGDTLTFECPAAFELVGERVITCQQNNQWSGNKPSC` ?
soluble
